Molecular target: rat ASIC3 (Rattus norvegicus, UniProt O35240)
Construct: expressed in transfected cells; host or cells: Xenopus laevis oocytes (cRNA injection)
Sequence (O35240 whole entry): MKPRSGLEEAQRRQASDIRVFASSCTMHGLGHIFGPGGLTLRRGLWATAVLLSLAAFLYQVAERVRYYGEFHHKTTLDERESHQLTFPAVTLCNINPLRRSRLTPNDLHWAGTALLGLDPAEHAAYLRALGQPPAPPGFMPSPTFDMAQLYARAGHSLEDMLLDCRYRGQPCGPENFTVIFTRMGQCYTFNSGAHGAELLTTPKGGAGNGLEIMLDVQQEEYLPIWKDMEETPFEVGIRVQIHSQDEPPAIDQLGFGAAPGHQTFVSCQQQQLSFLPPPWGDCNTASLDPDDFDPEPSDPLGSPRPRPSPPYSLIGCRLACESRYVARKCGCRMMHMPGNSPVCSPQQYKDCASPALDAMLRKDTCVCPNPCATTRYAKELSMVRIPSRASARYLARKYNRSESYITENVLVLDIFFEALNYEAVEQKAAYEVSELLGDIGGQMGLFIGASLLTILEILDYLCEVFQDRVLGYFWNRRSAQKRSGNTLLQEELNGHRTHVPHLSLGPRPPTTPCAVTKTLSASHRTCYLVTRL
Test: Two-electrode voltage-clamp electrophysiology on Xenopus laevis oocytes expressing homomeric rat ASIC3
Assay type: cell-based
Conditions: Xenopus oocytes, clamped at −60 mV, pH 6 stimulus, ND96 with 0.1% BSA, RT; n = 6; read-out: IC50 for inhibition of rASIC3 currents
Bridges are numbered along the chain shown (N, C = ends). Where no end group is shown, it is not given here.
readout name: pIC50
Recall that pIC50 is obtained by taking minus log10 of the concentration measured in molar.

Looking up GTACSCGNSKGIYWFYRPSCPTDRGYTGSCRYFLGTCCTPAD (disulfide 4-37, 6-30, 20-38) [APETx2_wt, APETx2] , I see its pIC50 listed as 7.21
